test system: S. aureus ATCC 29213; type: cell-based, Staphylococcus aureus; conditions: ATCC 29213, 18 h
Non-standard residues stand in square brackets, D forms with d. Residues, ends and D or L forms follow the SMILES beside them. Gly(Nα-4-Cl-benzyl) = O=C(O)CNCc1ccc(Cl)cc1; N(4-Br-benzyl)Gly = O=C(O)CNCc1ccc(Br)cc1; NBzl(4-I)Gly = O=C(O)CNCc1ccc(I)cc1; Nphe = O=C(O)CNCc1ccccc1; Nlys = NCCCCNCC(=O)O
Property: Minimal inhibitory concentration SA^b (µg/mL)
API: value field is a number in µg/mL; no unit string.

Record excerpt, results attached:
NCCCCNCC(=O)N(CC(=O)N(CCCCN)CC(=O)N(CC(=O)N(CCCCN)CC(=O)N(CC(=O)N(CCCCN)CC(=O)N(CC(N)=O)Cc1ccc(I)cc1)Cc1ccccc1)Cc1ccc(I)cc1)Cc1ccccc1 [Compound 18] (H-[Nlys][Nphe][Nlys][NBzl(4-I)Gly][Nlys][Nphe][Nlys][NBzl(4-I)Gly]-NH2) = 32
NCCCCNCC(=O)N(CC(=O)N(CCCCN)CC(=O)N(CC(=O)N(CCCCN)CC(=O)N(CC(=O)N(CCCCN)CC(=O)N(CC(=O)N(CCCCN)CC(=O)N(CC(N)=O)Cc1ccc(Cl)cc1)Cc1ccc(Cl)cc1)Cc1ccc(Cl)cc1)Cc1ccc(Cl)cc1)Cc1ccc(Cl)cc1 [Compound 21] (H-[Nlys][Gly(Nα-4-Cl-benzyl)][Nlys][Gly(Nα-4-Cl-benzyl)][Nlys][Gly(Nα-4-Cl-benzyl)][Nlys][Gly(Nα-4-Cl-benzyl)][Nlys][Gly(Nα-4-Cl-benzyl)]-NH2) = 2
NCCCCNCC(=O)N(CC(=O)N(CCCCN)CC(=O)N(CC(=O)N(CCCCN)CC(=O)N(CC(=O)N(CCCCN)CC(=O)N(CC(=O)N(CCCCN)CC(=O)N(CC(N)=O)Cc1ccc(Cl)cc1)Cc1ccccc1)Cc1ccc(Cl)cc1)Cc1ccccc1)Cc1ccc(Cl)cc1 [Compound 25] (H-[Nlys][Gly(Nα-4-Cl-benzyl)][Nlys][Nphe][Nlys][Gly(Nα-4-Cl-benzyl)][Nlys][Nphe][Nlys][Gly(Nα-4-Cl-benzyl)]-NH2) = 8
NCCCCNCC(=O)N(CC(=O)N(CCCCN)CC(=O)N(CC(=O)N(CCCCN)CC(=O)N(CC(N)=O)Cc1ccc(Cl)cc1)Cc1ccc(Cl)cc1)Cc1ccc(Cl)cc1 [Compound 3] (H-[Nlys][Gly(Nα-4-Cl-benzyl)][Nlys][Gly(Nα-4-Cl-benzyl)][Nlys][Gly(Nα-4-Cl-benzyl)]-NH2) = 64
NCCCCNCC(=O)N(CC(=O)N(CCCCN)CC(=O)N(CC(=O)N(CCCCN)CC(=O)N(CC(=O)N(CCCCN)CC(=O)N(CC(=O)N(CCCCN)CC(=O)N(CC(N)=O)Cc1ccc(Br)cc1)Cc1ccccc1)Cc1ccc(Br)cc1)Cc1ccccc1)Cc1ccc(Br)cc1 [Compound 26] (H-[Nlys][N(4-Br-benzyl)Gly][Nlys][Nphe][Nlys][N(4-Br-benzyl)Gly][Nlys][Nphe][Nlys][N(4-Br-benzyl)Gly]-NH2) = 4
NCCCCNCC(=O)N(CC(=O)N(CCCCN)CC(=O)N(CC(=O)N(CCCCN)CC(=O)N(CC(=O)N(CCCCN)CC(=O)N(CC(=O)N(CCCCN)CC(=O)N(CC(=O)N(CCCCN)CC(=O)N(CC(N)=O)Cc1ccccc1)Cc1ccccc1)Cc1ccccc1)Cc1ccccc1)Cc1ccccc1)Cc1ccccc1 [Compound 28] (H-[Nlys][Nphe][Nlys][Nphe][Nlys][Nphe][Nlys][Nphe][Nlys][Nphe][Nlys][Nphe]-NH2) = 512
NCCCCNCC(=O)N(CC(=O)N(CCCCN)CC(=O)N(CC(=O)N(CCCCN)CC(=O)N(CC(=O)N(CCCCN)CC(=O)N(CC(N)=O)Cc1ccc(Br)cc1)Cc1ccc(Br)cc1)Cc1ccc(Br)cc1)Cc1ccc(Br)cc1 [Compound 13] (H-[Nlys][N(4-Br-benzyl)Gly][Nlys][N(4-Br-benzyl)Gly][Nlys][N(4-Br-benzyl)Gly][Nlys][N(4-Br-benzyl)Gly]-NH2) = 8
NCCCCNCC(=O)N(CC(=O)N(CCCCN)CC(=O)N(CC(=O)N(CCCCN)CC(=O)N(CC(=O)N(CCCCN)CC(=O)N(CC(=O)N(CCCCN)CC(=O)N(CC(=O)N(CCCCN)CC(=O)N(CC(N)=O)Cc1ccc(Br)cc1)Cc1ccccc1)Cc1ccc(Br)cc1)Cc1ccccc1)Cc1ccc(Br)cc1)Cc1ccccc1 [Compound 35] (H-[Nlys][Nphe][Nlys][N(4-Br-benzyl)Gly][Nlys][Nphe][Nlys][N(4-Br-benzyl)Gly][Nlys][Nphe][Nlys][N(4-Br-benzyl)Gly]-NH2) = 8

Now examine the next entry.
Documented Minimal inhibitory concentration SA^b of NCCCCNCC(=O)N(CC(=O)N(CCCCN)CC(=O)N(CC(=O)N(CCCCN)CC(=O)N(CC(=O)N(CCCCN)CC(=O)N(CC(N)=O)Cc1ccc(Br)cc1)Cc1ccccc1)Cc1ccc(Br)cc1)Cc1ccccc1 [Compound 17] (H-[Nlys][Nphe][Nlys][N(4-Br-benzyl)Gly][Nlys][Nphe][Nlys][N(4-Br-benzyl)Gly]-NH2) : 32
